Origin of measurements: paper PMC11339278

molecular target: SNX17ΔC (residue 1-390) with an intramolecular decaHis tag (human) (UniProt Q15036); experiment: ITC; 2 mM SNX17 tail peptide injected into 20 μM SNX17 FL or SNX17ΔC; 13 x 3.22 μL; 10 °C; 500 mM NaCl, 100 mM Tris pH 8.0, 5% glycerol; single site binding model
pKd: −log10 of the molar value.
measurement type: pKd

> print(dat)
                                     binder  reported.measurement
1  SASDVHGNFAFEGIGDEDL [synthetic peptide of the SNX17 tail (452-470)]                  3.72
